- ASSAY DETAILS: In vivo microdialysis pharmacokinetics of LVFX without transporter inhibitors
- Set-up: species or system rat
- CONDITION SET: rat, CSF (lateral ventricle microdialysate), iv, 50 mg/kg, CSF; Group 4: LVFX 50 mg/kg alone; mean ± SD, n=3; read-out: AUC0–180 (converted)
QUANTITY: AUC(0-t) (ng·h/mL)
Give bare numbers, in ng·h/mL.

// query I am curious: what AUC(0-t) value has been reported for C[C@H]1COc2c(N3CCN(C)CC3)c(F)cc3c(=O)c(C(=O)O)cn1c23 ?
// result 4330

---

- TARGET OR TEST SYSTEM: Breast cancer resistance protein (BCRP) (Rattus norvegicus)
- Construct: from tissue; host or cells: living rat (blood-brain barrier, choroid plexus)
- ASSAY DETAILS: In vivo microdialysis pharmacokinetics of LVFX with BCRP inhibitor Ko143
- CONDITION SET: intravenous, with Ko143 15 mg/kg i.p., 30 min before LVFX, blood, Ko143 group, Ko143 15 mg/kg i.p. + LVFX 50 mg/kg, mean ± SD, N=5
QUANTITY: AUC(0-inf) (ng·h/mL)
Answers are plain numbers, in ng·h/mL.

// query I am curious: what AUC(0-inf) value has been reported for C[C@H]1COc2c(N3CCN(C)CC3)c(F)cc3c(=O)c(C(=O)O)cn1c23 ?
// result 11900

---

- TARGET OR TEST SYSTEM: Breast cancer resistance protein (BCRP) (Rattus norvegicus)
- Construct: from tissue; host or cells: living rat (blood-brain barrier, choroid plexus)
- Sequence (Q80W57 1-657): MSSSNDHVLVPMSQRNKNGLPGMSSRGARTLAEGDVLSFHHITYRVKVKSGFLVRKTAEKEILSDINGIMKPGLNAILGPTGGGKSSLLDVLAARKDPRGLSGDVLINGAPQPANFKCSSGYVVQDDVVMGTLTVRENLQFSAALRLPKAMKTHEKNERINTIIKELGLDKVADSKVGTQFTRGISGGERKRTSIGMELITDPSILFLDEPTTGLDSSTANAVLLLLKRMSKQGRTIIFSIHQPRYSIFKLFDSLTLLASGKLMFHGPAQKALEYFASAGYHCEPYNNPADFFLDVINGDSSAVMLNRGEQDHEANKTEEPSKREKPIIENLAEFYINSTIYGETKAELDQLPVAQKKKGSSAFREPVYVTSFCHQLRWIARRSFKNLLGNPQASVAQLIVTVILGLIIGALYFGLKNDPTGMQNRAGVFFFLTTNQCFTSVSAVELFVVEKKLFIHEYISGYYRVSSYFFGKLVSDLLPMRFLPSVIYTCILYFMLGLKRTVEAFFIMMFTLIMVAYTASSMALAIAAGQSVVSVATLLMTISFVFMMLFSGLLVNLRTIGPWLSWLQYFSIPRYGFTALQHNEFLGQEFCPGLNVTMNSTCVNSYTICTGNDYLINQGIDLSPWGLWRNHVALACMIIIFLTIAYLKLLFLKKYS
- ASSAY DETAILS: In vivo microdialysis pharmacokinetics of LVFX with BCRP inhibitor Ko143
- CONDITION SET: CSF (lateral ventricle microdialysate, unbound), intravenous, with Ko143 15 mg/kg i.p., CSF, Ko143 group, Ko143 15 mg/kg i.p. + LVFX 50 mg/kg, N=5
- Method: On the day of surgery, rats were anesthetized using inhaled isoflurane via a facemask. The rats were placed in a stereotaxic frame (Gene&I), and the body temperature was maintained with a homoeothermic blanket set at 37°C. A midline incision was made to expose the skull. […]
QUANTITY: Tmax
Report the figure along with its unit, number first.

// query I am curious: what Tmax value has been reported for C[C@H]1COc2c(N3CCN(C)CC3)c(F)cc3c(=O)c(C(=O)O)cn1c23 [LVFX, Levofloxacin] ?
// result 15 min
